The reported numbers originate from PubChem BioAssay AID463202.

- TESTED_SYSTEM: Vasopressin V2 receptor (Homo sapiens) (UniProt P30518)
- Sequence (P30518 whole entry, looked up): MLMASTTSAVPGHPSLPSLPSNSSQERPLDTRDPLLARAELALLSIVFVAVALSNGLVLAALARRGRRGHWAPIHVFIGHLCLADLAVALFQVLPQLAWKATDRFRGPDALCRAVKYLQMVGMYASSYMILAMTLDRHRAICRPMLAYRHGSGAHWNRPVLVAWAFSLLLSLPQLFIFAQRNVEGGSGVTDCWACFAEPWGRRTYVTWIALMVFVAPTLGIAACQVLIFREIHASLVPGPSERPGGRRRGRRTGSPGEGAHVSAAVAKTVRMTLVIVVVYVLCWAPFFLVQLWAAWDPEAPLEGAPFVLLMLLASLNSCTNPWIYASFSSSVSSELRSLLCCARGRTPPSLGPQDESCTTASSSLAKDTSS
- ASSAY_PROTOCOL: blockade of AVPR2 arrestin recruitment – imaging, beta-arrestin-GFP, U2OS, antagonist mode, selectivity assay for GPR35 antagonist project, SAR follow-up (AID 463202)
- CONDITION_DESCRIPTION: U2OS AVPR2 beta-arrestin-GFP translocation imaging; at 10 µM; hits give high values
Activity calls are given as the source filed them.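 How the source made its calls: active means inhibition above 50% relative to controls in each of two repeat datasets, tested at 10 µM; inactive means the rest.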
What inhibition was measured for each of the following?

Given O=C(CCCN1C(=O)/C(=C\c2ccccc2)SC1=S)Nc1ccc(C(=O)O)cc1 , state its recorded inhibition. 4.8% (inactive)

Field request: inhibition | item: COc1ccc(/C=C2\SC(=S)N(CCCC(=O)Nc3cccc(C(=O)O)c3)C2=O)cc1OC 27.3% (inactive)

I'd like to know its inhibition. The compound in question is Cc1c(C(=O)Nc2ccc3c(c2)OCCO3)sc2ncnc(N3CCC(C)CC3)c12 -3.7% (inactive)

State the recorded inhibition for this entry: O=C(CCCN1C(=O)/C(=C\c2ccccc2)SC1=S)Nc1cccc(C(=O)O)c1 15.9% (inactive)

What value of inhibition has been reported for the following compound? COc1ccc(/C=C2/SC(=S)N(CCCC(=O)Nc3ccc(O)cc3)C2=O)cc1 1.8% (inactive)

Consider the compound shown here: Cc1ccc(/C=C2\SC(=S)N(CCCC(=O)Nc3ccc(O)cc3)C2=O)cc1 What is its recorded inhibition? 9.2% (inactive)

What value of inhibition has been reported for the following compound? COc1cccc(/C=C2\SC(=S)N(CCCC(=O)Nc3ccc(C(=O)O)cc3)C2=O)c1 -2.9% (inactive)

Request the reported inhibition associated with O=C(CCCN1C(=O)/C(=C/c2ccc3c(c2)OCO3)SC1=S)Nc1ccc(C(=O)O)c(O)c1 28.4% (inactive)

Consider the compound shown here: CC(/C=C1\SC(=S)N(CCCC(=O)Nc2ccc(C(=O)O)cc2)C1=O)=C\c1ccccc1 What is its recorded inhibition? 18.5% (inactive)

Tell me the measured inhibition of O=C(CCCN1C(=O)/C(=C/c2ccccc2)SC1=S)Nc1ccc(C(=O)O)c(O)c1 , please. 51.3% (inactive)

What value of measured inhibition is listed for CC(C)c1ccc(NC(=O)CSc2nc3ccsc3c(=O)n2Cc2ccc(C(=O)O)cc2)cc1 ? 22.9% (inactive)

What measured inhibition goes with CCOC(=O)c1ccc(NC(=O)CCCN2C(=O)/C(=C/c3ccc(C)cc3)SC2=S)cc1 ? 28.8% (inactive)

Name the recorded inhibition for O=C(CCCN1C(=O)/C(=C/c2ccc3c(c2)OCO3)SC1=S)Nc1cccc(C(=O)O)c1 . 13.2% (inactive)

Recorded inhibition for CC(C)(C)c1ccc(OCCC(=O)NCCc2ccc(S(N)(=O)=O)cc2)cc1 , please? 12.5% (inactive)

Recorded inhibition for O=C(CCCN1C(=O)S/C(=C/C=C/c2ccccc2)C1=O)Nc1ccc(C(=O)O)cc1 , please? 8.9% (inactive)

Quick one: inhibition of Cc1ccc(Cn2ncc3c(N4CCN(c5ccccc5C)CC4)ncnc32)cc1 ? 36.9% (inactive)
